Target: PDK1 (Homo sapiens (Human))
Experimental details: PDK1 kinase assay (coupled PDK1/AKT/FAM-crosstide assay, IMAP fluorescence polarization)
Assay type: biochemical
Measurement parameters: inhibition of phospo-PDK1 in vitro
Where a name gives a salt, the structure may show the parent alone.
The reader will find reported IC50 values listed item by item below.

>  <Compound>
CCNS(=O)(=O)c1cnc(NCc2ccc(-c3ccc4ncnc(N)c4c3)s2)c(C(=O)NC)c1 [Example 8.6.16]

>  <IC50>
> 5000 nM

$$$$
>  <Compound>
CC[C@H](NC(=O)c1cccnc1NCc1ccc(-c2ccc3ncnc(N)c3c2)s1)c1cccc(F)c1 [Example 3.42, (TFA salt)]

>  <IC50>
100 to 1000 nM

$$$$
>  <Compound>
C[C@H](NC(=O)c1cccnc1NCc1ccc(-c2ccc3ncnc(N4CC(C)(O)C4)c3c2)s1)c1ccc(F)c(F)c1 [Example 4.37]

>  <IC50>
100 to 1000 nM

$$$$
>  <Compound>
CS(=O)(=O)Nc1cnc(NCc2ccc(-c3ccc4ncnc(N)c4c3)s2)c(C(=O)NCc2ccc(F)c(F)c2)c1 [Ex. 8.6.1]

>  <IC50>
< 100 nM

$$$$
>  <Compound>
Nc1ncnc2ccc(-c3ccc(CNc4ncccc4C(=O)Nc4ccc(F)cc4)s3)cc12 [Example 3.47, (TFA salt)]

>  <IC50>
100 to 1000 nM

$$$$
>  <Compound>
C[C@H](NC(=O)c1cn(C)nc1NCc1ccc(-c2ccc3ncnc(N)c3c2)s1)c1ccc(F)cc1 [Example 11.5]

>  <IC50>
< 100 nM

$$$$

IC50 in this record for CCNS(=O)(=O)c1cnc(NCc2ccc(-c3ccc4ncnc(N)c4c3)s2)c(C(=O)NCc2ccc(F)c(F)c2)c1 [Example 8.7.11] : 100 to 1000 nM

IC50 in this record for Nc1ncnc2ccc(-c3ccc(CNc4ncccc4C(=O)NCc4ccc(F)cc4)s3)cc12 [Example 3.7, (TFA salt)] : < 100 nM

IC50 in this record for CN(C)CC(=O)Nc1cnc(NCc2ccc(-c3ccc4ncnc(N)c4c3)s2)c(C(=O)NCc2ccc(F)c(F)c2)c1 [Example 8.5.8] : 100 to 1000 nM

IC50 in this record for Nc1n[nH]c2ncc(-c3ccc(CNc4ncc(C(F)(F)F)cc4C(=O)Nc4ccc(F)cc4)cc3)cc12 [Example 38] : < 100 nM

IC50 in this record for C[C@H](NC(=O)c1cccnc1NCc1ccc(-c2ccc3ncnc(N)c3c2)s1)c1ccc(F)cc1F [Example 3.61, (TFA salt)] : 100 to 1000 nM

IC50 in this record for O=C(NCC1CCCC1)c1cccnc1NCc1ccc(-c2c[nH]c3ncccc23)s1 [Example 1.19] : 1000 to 5000 nM

IC50 in this record for CS(=O)(=O)c1cnc(NCc2ccc(-c3ccc4ncnc(N)c4c3)s2)c(C(=O)NCc2ccc(F)c(F)c2)c1 [Example 8.7.8] : 100 to 1000 nM

IC50 in this record for CCOc1cnc(NCc2ccc(-c3ccc4ncnc(N)c4c3)s2)c(C(=O)NCc2ccc(F)c(F)c2)c1 [Example 8.1.3] : > 5000 nM

IC50 in this record for CC(C)[C@H](NC(=O)c1cccnc1NCc1ccc(-c2ccc3ncnc(N)c3c2)s1)c1cccc(F)c1 [Example 3.44, (TFA salt)] : 100 to 1000 nM

IC50 in this record for C[C@H](NC(=O)c1nccnc1NC/C=C/c1ccc2c(c1)NC(=O)/C2=C\c1cnc[nH]1)c1ccc(F)cc1 [Example 15.20] : < 100 nM

IC50 in this record for Nc1ncnc2ccc(-c3ccc(CNc4ncccc4C(=O)Nc4ccc(F)c(Cl)c4)s3)cc12 [Example 3.49, (TFA salt)] : 100 to 1000 nM

IC50 in this record for Nc1ncnc2ccc(-c3ccccc3CNc3ncccc3C(=O)NCc3ccc(F)c(F)c3)cc12 [Ex. 6.5] : > 5000 nM

IC50 in this record for CCS(=O)(=O)Nc1cnc(NCc2ccc(-c3ccc4ncnc(N)c4c3)s2)c(C(=O)NCc2ccc(F)c(F)c2)c1 [Example 8.6.2] : 100 to 1000 nM

IC50 in this record for C[C@H](NC(=O)c1cccnc1NCc1ccc(-c2ccn3ncnc3c2)s1)c1ccc(F)cc1 [Example 2.5] : 1000 to 5000 nM

IC50 in this record for Nc1ncnc2ccc(-c3ccc(CNc4ncccc4C(=O)NCc4ccc(Cl)c(Cl)c4)s3)cc12 [Example 3.29, (TFA salt)] : 100 to 1000 nM

====

Test system: phospho-akt (Thr308) in PC-3 cells
Experimental details: Inhibition of phospho-akt (Thr308) in PC-3 cells, MSD phospho-akt 308 ELISA kit
Assay type: cell-based
Measurement parameters: Homo sapiens; inhibition of P308 Akt in PC-3 cells using MSD, 2 hours, no serum; read-out: EC50
The reader will find reported EC50 values listed item by item below.

Solved cases (2 shown):
>  <Molecule>
C[C@H](NC(=O)c1cc(C#N)cnc1NCc1ccc(-c2cnc3[nH]ncc3c2)cc1)c1ccc(F)c(F)c1 [Example 395]

>  <EC50>
< 1 µM

$$$$
>  <Molecule>
CNC(=O)c1nc(-c2ccc(CNc3ncc(C#N)cc3C(=O)N[C@@H](C)c3ccc(F)cc3)cc2)cnc1N [Example 216]

>  <EC50>
< 1 µM

$$$$

The molecule C[C@H](NC(=O)c1cc(C#N)cnc1NCc1ncc(-c2cnc3[nH]ncc3c2)cn1)c1ccc(F)cc1 [Example 64] on phospho-akt (Thr308) in PC-3 cells: EC50 was > 10 µM

The molecule C[C@H](NC(=O)c1cc(C(F)(F)F)cnc1NCc1ccc(-c2cnc3[nH]ncc3c2)cc1)c1ccc(F)c(F)c1 [Example 394] on phospho-akt (Thr308) in PC-3 cells: EC50 was < 1 µM

The molecule CC(C)Oc1cc(CNc2ncccc2C(=O)NCc2ccc(F)c(F)c2)cc(-c2c[nH]c3ncc(-c4ccc[nH]4)cc23)c1 [Example 335] on phospho-akt (Thr308) in PC-3 cells: EC50 was > 10 µM

The molecule Cc1cc(N)ncc1-c1ccc(CNc2ncc(C#N)cc2C(=O)N[C@@H](C)c2ccc(F)cc2)cc1 [Example 121] on phospho-akt (Thr308) in PC-3 cells: EC50 was > 10 µM

The molecule C[C@H](NC(=O)c1cc(C#N)cnc1NCc1ccc(-c2ccc(N)nc2)nc1)c1ccc(F)cc1 [Example 68] on phospho-akt (Thr308) in PC-3 cells: EC50 was 1 to 10 µM

====

Target: PDK1 (Homo sapiens (Human))
Experimental details: PDK1 kinase assay (coupled PDK1/AKT/FAM-crosstide assay, IMAP fluorescence polarization)
Format: biochemical
Measurement parameters: inhibition of phospo-PDK1 in vitro
pIC50: −log10 of the molar value.
The reader will find reported pIC50 values listed item by item below.

>  <Molecule>
N#Cc1cnc(NCc2ccc(-c3cnc4[nH]nc(N)c4c3)cc2)c(C(=O)NCc2ccc(F)cc2)n1 [Example 33]

>  <Measured value>
> 7.00

$$$$
>  <Molecule>
CNC(=O)c1cc(S(=O)(=O)N2CCCCC2)cnc1NCc1ccc(-c2ccc3ncnc(N)c3c2)s1 [Example 8.6.19]

>  <Measured value>
< 5.30

$$$$
>  <Molecule>
C[C@H](NC(=O)c1cccnc1NCc1ccc(-c2cn3ccnc3cn2)s1)c1ccc(F)cc1 [Example 2.8]

>  <Measured value>
5.30 to 6.00

$$$$

Proceeding to the next molecule to report its pIC50.
pIC50 in this record for COc1ccnc(NCc2ccc(-c3ccc4ncnc(N)c4c3)s2)c1C(=O)N[C@@H](C)c1ccc(F)cc1 [Ex. 7.6] : > 7.00

====

Target: PDK1 (Homo sapiens (Human), UniProt O15530)
Sequence (O15530 51-359): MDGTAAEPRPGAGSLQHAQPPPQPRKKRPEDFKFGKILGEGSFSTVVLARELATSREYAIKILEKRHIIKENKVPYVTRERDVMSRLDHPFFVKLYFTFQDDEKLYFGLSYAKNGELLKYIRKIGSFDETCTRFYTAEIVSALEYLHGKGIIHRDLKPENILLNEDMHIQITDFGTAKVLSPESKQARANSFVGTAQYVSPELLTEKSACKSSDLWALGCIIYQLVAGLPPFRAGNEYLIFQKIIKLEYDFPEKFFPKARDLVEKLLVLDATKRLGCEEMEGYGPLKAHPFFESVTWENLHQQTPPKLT
Experimental details: PDK1 kinase assay (coupled PDK1/AKT/FAM-crosstide assay, IMAP fluorescence polarization)
Assay type: biochemical
Measurement parameters: inhibition of phospo-PDK1 in vitro
Test readout: IC50

Solved cases (6 shown):
>  <Structure smiles string>
CC(C)Oc1cc(CNc2ncccc2C(=O)NCc2ccc(F)c(F)c2)cc(-c2ccc3ncncc3c2)c1

>  <IC50>
100 to 1000 nM

$$$$
>  <Structure smiles string>
CCOC(=O)c1cnc(NCc2ccc(-c3ccc4ncnc(N)c4c3)s2)c(C(=O)NCc2ccc(F)c(F)c2)c1

>  <IC50>
100 to 1000 nM

$$$$
>  <Structure smiles string>
O=C(NCc1ccc(F)c(F)c1)c1cc(C(F)(F)F)cnc1NCc1ccc(-c2cnc3[nH]ncc3c2)cc1

>  <IC50>
< 100 nM

$$$$
>  <Structure smiles string>
C[C@H](NC(=O)c1cccnc1NCCOc1ccc2cc[nH]c2c1)c1ccc(F)c(F)c1

>  <IC50>
> 5000 nM

$$$$
>  <Structure smiles string>
C#CCNC(=O)c1cccnc1NCc1cc(OC(C)C)cc(-c2c[nH]c3ncc(C(=O)NC4CC4)cc23)c1

>  <IC50>
100 to 1000 nM

$$$$
>  <Structure smiles string>
O=C(NCc1ccc(F)cc1)c1cccnc1NCc1cccc(-c2c[nH]c3ncccc23)c1

>  <IC50>
< 100 nM

$$$$

IC50 in this record for `C[C@@H](c1ccc(F)c(F)c1)n1cnc2ccnc(NCc3ccc(-c4ccc5ncnc(N)c5c4)s3)c2c1=O` : < 100 nM
